Reported pIC50 is given for each of the following molecules.
# Tested on: 817829-284-R-J1-PDC complex spheroids, viability
# assay method text: Anticancer human tumor 817829-284-R-J1-PDC patient-derived colon adenocarcinoma cell line growth inhibition [GQUAD]
# condition: curve of first compound; second compound 10 µM
pIC50: −log10 of the molar value.
recorded endpoint: pIC50

| molecule | tested target | measured value |
| --- | --- | --- |
| CC(C)n1c(=O)n(C)c2cnc3cc(F)c(-c4ccc(OCCCN5CCCCC5)nc4)cc3c21 + CN(C)c1ccc(Nc2c3ccc(NC(=O)CCN4CCCC4)cc3nc3cc(NC(=O)CCN4CCCC4)ccc23)cc1 | 817829-284-R-J1-PDC complex spheroids, viability | 6.38 |
| CC[C@@]1(O)C(=O)OCc2c1cc1n(c2=O)Cc2cc3c(CN(C)C)c(O)ccc3nc2-1 + CN(C)c1ccc(Nc2c3ccc(NC(=O)CCN4CCCC4)cc3nc3cc(NC(=O)CCN4CCCC4)ccc23)cc1 | 817829-284-R-J1-PDC complex spheroids, viability | 7.12 |
| Cc1cccc(N(C)C(=O)C2C(O)CCN2c2nc(C)cc(C(F)(F)F)c2C#N)c1 (stereo not given) + CN(C)c1ccc(Nc2c3ccc(NC(=O)CCN4CCCC4)cc3nc3cc(NC(=O)CCN4CCCC4)ccc23)cc1 | 817829-284-R-J1-PDC complex spheroids, viability | 5.39 |
| C#Cc1c(F)ccc2cc(O)cc(-c3ncc4c(N5CC6CCC(C5)N6)nc(OCC56CCCN5CC(F)C6)nc4c3F)c12 (stereo not given) + Cc1[nH]c2ccc(F)cc2c1-c1nc2c3cccnc3c3ncccc3c2[nH]1 | 817829-284-R-J1-PDC complex spheroids, viability | > 7.50 |
| CC(=O)O[C@H]1C(=O)[C@@]2(C)[C@H]([C@H](OC(=O)c3ccccc3)[C@]3(O)C[C@H](OC(=O)[C@H](O)[C@@H](NC(=O)c4ccccc4)c4ccccc4)C(C)=C1C3(C)C)[C@]1(OC(C)=O)CO[C@@H]1C[C@@H]2O + CN(C)c1ccc(Nc2c3ccc(NC(=O)CCN4CCCC4)cc3nc3cc(NC(=O)CCN4CCCC4)ccc23)cc1 | 817829-284-R-J1-PDC complex spheroids, viability | > 7.50 |
| O=C(NO)c1cnc(N2CCN(S(=O)(=O)c3ccc4ccccc4c3)CC2)nc1 + Cc1cnc(CNC(=O)c2c(=O)c3ccc(N4CCCN(C)CC4)nc3n3c2sc2ccccc23)cn1 | 817829-284-R-J1-PDC complex spheroids, viability | > 7.50 |
| COc1ncnc(C2CC2)c1-c1ncc2cnn(Cc3ccc(-c4nc(C(F)(F)F)cn4C(C)C)cc3)c2n1 + Cc1cnc(CNC(=O)c2c(=O)c3ccc(N4CCCN(C)CC4)nc3n3c2sc2ccccc23)cn1 | 817829-284-R-J1-PDC complex spheroids, viability | > 7.50 |
| CC(C)n1c(=O)n(C)c2cnc3cc(F)c(-c4ccc(OCCCN5CCCCC5)nc4)cc3c21 + Cc1cnc(CNC(=O)c2c(=O)c3ccc(N4CCCN(C)CC4)nc3n3c2sc2ccccc23)cn1 | 817829-284-R-J1-PDC complex spheroids, viability | > 7.50 |
| COc1cc(C2c3cc4c(cc3C(OC3OC5COC(C)OC5C(O)C3O)C3COC(=O)C23)OCO4)cc(OC)c1O (stereo not given) + Cc1cnc(CNC(=O)c2c(=O)c3ccc(N4CCCN(C)CC4)nc3n3c2sc2ccccc23)cn1 | 817829-284-R-J1-PDC complex spheroids, viability | > 7.50 |
| COc1ccc([C@@H](O)c2cc(-c3ncnc4cc(N5CCOCC5)ccc34)c(F)cc2Cl)nn1 + Cc1cnc(CNC(=O)c2c(=O)c3ccc(N4CCCN(C)CC4)nc3n3c2sc2ccccc23)cn1 | 817829-284-R-J1-PDC complex spheroids, viability | > 7.50 |

###

# Test system: 817829-284-R-J1-PDC complex spheroids, viability
# assay method text: Anticancer human tumor 817829-284-R-J1-PDC cell line growth inhibition [GQUAD];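 also: spheroids exposed to agents for 7 days before readout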;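 as to viability, T/C: percent viability relative to DMSO vehicle control taken as 100%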
# condition: second compound 0.0316 µM; first compound 0.00316 µM; stronger effect = lower value

| molecule | reading unit | viability, T/C |
| --- | --- | --- |
| Cn1ncnc1[C@H]1c2n[nH]c(=O)c3cc(F)cc(c23)N[C@@H]1c1ccc(F)cc1 + Cc1[nH]c2ccc(F)cc2c1-c1nc2c3cccnc3c3ncccc3c2[nH]1 | % | 88.8 |
| Cn1ncnc1[C@H]1c2n[nH]c(=O)c3cc(F)cc(c23)N[C@@H]1c1ccc(F)cc1 + CN(C)c1ccc(Nc2c3ccc(NC(=O)CCN4CCCC4)cc3nc3cc(NC(=O)CCN4CCCC4)ccc23)cc1 | % | 112 |
| CC[C@@]1(O)C(=O)OCc2c1cc1n(c2=O)Cc2cc3c(CN(C)C)c(O)ccc3nc2-1 + Cc1cnc(CNC(=O)c2c(=O)c3ccc(N4CCCN(C)CC4)nc3n3c2sc2ccccc23)cn1 | % | 61 |
| Cc1[nH]c2ccccc2c1CCNCc1ccc(/C=C/C(=O)NO)cc1 + CN(C)c1ccc(Nc2c3ccc(NC(=O)CCN4CCCC4)cc3nc3cc(NC(=O)CCN4CCCC4)ccc23)cc1 | % | 99.3 |
| Cc1[nH]c2ccccc2c1CCNCc1ccc(/C=C/C(=O)NO)cc1 + Cc1[nH]c2ccc(F)cc2c1-c1nc2c3cccnc3c3ncccc3c2[nH]1 | % | 102 |
| Cn1ncnc1[C@H]1c2n[nH]c(=O)c3cc(F)cc(c23)N[C@@H]1c1ccc(F)cc1 + Cc1cnc(CNC(=O)c2c(=O)c3ccc(N4CCCN(C)CC4)nc3n3c2sc2ccccc23)cn1 | % | 70.5 |
| CC[C@@]1(O)C(=O)OCc2c1cc1n(c2=O)Cc2cc3c(CN(C)C)c(O)ccc3nc2-1 + Cc1[nH]c2ccc(F)cc2c1-c1nc2c3cccnc3c3ncccc3c2[nH]1 | % | 84.5 |
| CC[C@@]1(O)C(=O)OCc2c1cc1n(c2=O)Cc2cc3c(CN(C)C)c(O)ccc3nc2-1 + CN(C)c1ccc(Nc2c3ccc(NC(=O)CCN4CCCC4)cc3nc3cc(NC(=O)CCN4CCCC4)ccc23)cc1 | % | 104 |
| CCc1c2c(nc3ccc(O)cc13)-c1cc3c(c(=O)n1C2)COC(=O)[C@]3(O)CC + CN(C)c1ccc(Nc2c3ccc(NC(=O)CCN4CCCC4)cc3nc3cc(NC(=O)CCN4CCCC4)ccc23)cc1 | % | 44.4 |
| Cc1[nH]c2ccccc2c1CCNCc1ccc(/C=C/C(=O)NO)cc1 + Cc1cnc(CNC(=O)c2c(=O)c3ccc(N4CCCN(C)CC4)nc3n3c2sc2ccccc23)cn1 | % | 67.1 |
| CCc1c2c(nc3ccc(O)cc13)-c1cc3c(c(=O)n1C2)COC(=O)[C@]3(O)CC + Cc1[nH]c2ccc(F)cc2c1-c1nc2c3cccnc3c3ncccc3c2[nH]1 | % | 28.1 |
| CCc1c2c(nc3ccc(O)cc13)-c1cc3c(c(=O)n1C2)COC(=O)[C@]3(O)CC + Cc1cnc(CNC(=O)c2c(=O)c3ccc(N4CCCN(C)CC4)nc3n3c2sc2ccccc23)cn1 | % | 25.9 |

###

# Tested on: 817829-284-R-J1-PDC complex spheroids, viability
# assay method text: Anticancer human tumor 817829-284-R-J1-PDC cell line growth inhibition [GQUAD]; active = viability on the fitted dose curve at most 10% of control; inactive = the rest;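 also: spheroids exposed to agents for 7 days before readout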
# condition: second compound 1 µM; first compound 1 µM
Labels: active, inactive

| compound | tested target | class assignment |
| --- | --- | --- |
| C=CCn1c(=O)c2cnc(Nc3ccc(N4CCN(C)CC4)cc3)nc2n1-c1cccc(C(C)(C)O)n1 + CN(C)c1ccc(Nc2c3ccc(NC(=O)CCN4CCCC4)cc3nc3cc(NC(=O)CCN4CCCC4)ccc23)cc1 | 817829-284-R-J1-PDC complex spheroids, viability | active |
| COc1ncnc(C2CC2)c1-c1ncc2cnn(Cc3ccc(-c4nc(C(F)(F)F)cn4C(C)C)cc3)c2n1 + Cc1cnc(CNC(=O)c2c(=O)c3ccc(N4CCCN(C)CC4)nc3n3c2sc2ccccc23)cn1 | 817829-284-R-J1-PDC complex spheroids, viability | inactive |
| CC(C)(O)C1CCC(Nc2ccc3ncc(-c4cccc(C(F)(F)F)c4)n3n2)CC1 (stereo not drawn) + Cc1cnc(CNC(=O)c2c(=O)c3ccc(N4CCCN(C)CC4)nc3n3c2sc2ccccc23)cn1 | 817829-284-R-J1-PDC complex spheroids, viability | inactive |
